# tested-target: DAPK1 (Homo sapiens, UniProt P53355)
# Construct: purchased ReactionBiology
# Sequence (P53355 whole entry): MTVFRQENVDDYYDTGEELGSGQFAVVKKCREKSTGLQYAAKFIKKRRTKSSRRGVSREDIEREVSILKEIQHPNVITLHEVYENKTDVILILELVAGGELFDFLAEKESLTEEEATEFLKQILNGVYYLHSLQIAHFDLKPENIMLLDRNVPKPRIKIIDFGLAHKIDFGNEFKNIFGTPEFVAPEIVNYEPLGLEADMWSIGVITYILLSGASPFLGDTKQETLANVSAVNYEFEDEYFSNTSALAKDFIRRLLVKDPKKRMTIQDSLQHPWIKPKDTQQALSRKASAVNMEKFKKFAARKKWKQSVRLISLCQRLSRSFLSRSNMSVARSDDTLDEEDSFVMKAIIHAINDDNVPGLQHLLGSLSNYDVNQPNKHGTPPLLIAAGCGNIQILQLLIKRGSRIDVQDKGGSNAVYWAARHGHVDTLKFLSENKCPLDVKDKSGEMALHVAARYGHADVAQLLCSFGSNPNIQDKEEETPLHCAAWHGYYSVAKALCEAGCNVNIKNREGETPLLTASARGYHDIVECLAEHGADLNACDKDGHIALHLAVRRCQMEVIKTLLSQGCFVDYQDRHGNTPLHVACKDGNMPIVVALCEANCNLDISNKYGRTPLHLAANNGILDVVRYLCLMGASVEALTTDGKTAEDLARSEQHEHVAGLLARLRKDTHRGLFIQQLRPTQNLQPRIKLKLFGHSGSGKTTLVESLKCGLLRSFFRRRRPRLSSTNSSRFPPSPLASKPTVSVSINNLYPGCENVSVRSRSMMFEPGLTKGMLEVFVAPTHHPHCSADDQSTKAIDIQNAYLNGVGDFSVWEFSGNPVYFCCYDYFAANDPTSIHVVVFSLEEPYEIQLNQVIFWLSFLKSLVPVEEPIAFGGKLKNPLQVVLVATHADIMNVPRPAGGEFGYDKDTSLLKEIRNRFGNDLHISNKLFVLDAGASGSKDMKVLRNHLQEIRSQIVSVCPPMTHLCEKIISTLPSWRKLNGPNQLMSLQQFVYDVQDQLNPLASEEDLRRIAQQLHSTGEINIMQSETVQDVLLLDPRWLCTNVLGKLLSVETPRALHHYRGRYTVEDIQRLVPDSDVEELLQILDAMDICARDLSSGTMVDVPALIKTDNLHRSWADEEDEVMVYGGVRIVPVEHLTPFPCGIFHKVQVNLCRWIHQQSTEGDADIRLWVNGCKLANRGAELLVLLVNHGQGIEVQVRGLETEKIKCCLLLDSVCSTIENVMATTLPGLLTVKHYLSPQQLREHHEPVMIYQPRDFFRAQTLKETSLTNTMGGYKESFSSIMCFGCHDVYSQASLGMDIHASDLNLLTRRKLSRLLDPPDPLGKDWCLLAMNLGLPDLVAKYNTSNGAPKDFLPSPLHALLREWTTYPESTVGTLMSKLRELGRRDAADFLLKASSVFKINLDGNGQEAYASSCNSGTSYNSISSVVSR
# protocol-notes: Kinase activity test (ReactionBiology), % enzyme activity relative to DMSO
# Type: biochemical
# setup-conditions: DAPK1; compound 1μM; relative to DMSO controls; read-out: % Enzyme activity at 1μM
remaining activity at 1 µM values, listed per item

compound: C=CC(=O)N1CCC[C@@H](n2nc(-c3ccc(Oc4ccccc4)cc3)c3c(N)ncnc32)C1 [Ibrutinib, reference compound]
remaining activity at 1 µM, %: 95.6

compound: Cc1cccc(C)c1OCC(=O)N[C@@H](Cc1ccccc1)[C@@H](O)C[C@H](Cc1ccccc1)NC(=O)[C@H](C(C)C)N1CCCNC1=O [Lopinavir, reference compound]
remaining activity at 1 µM, %: 90.4

compound: CN(C)CCOc1ccc(/C(=C(/CCCl)c2ccccc2)c2ccccc2)cc1 [Toremifene, reference compound]
remaining activity at 1 µM, %: 90.4

// data source = paper PMC7252619
